The entries below come with measured IC50 values attached.
tested on: PLA2 (phospholipase A2) from rat platelets (Rattus norvegicus)
Construct: from tissue; host or cells: rat platelets
Sequence (P14423 22-146): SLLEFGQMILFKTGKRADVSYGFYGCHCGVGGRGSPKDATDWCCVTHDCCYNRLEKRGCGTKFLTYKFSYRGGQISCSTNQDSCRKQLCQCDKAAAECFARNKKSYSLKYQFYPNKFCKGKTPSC
measurement protocol: Phospholipase A2 inhibitory activity (release of free fatty acid from 14C-labelled phosphatidylethanolamine)
Assay type: biochemical
condition details: rat platelet PLA2; Tris-buffer 0.1M, pH 7.4; CaCl2 3 mM; 37° C., 20 minutes
Protocol: The compounds of the present invention were tested for their Phospholipase A2 inhibitory activity by the following procedure. 1-Palmitoyl-2-[1-^14 C]-linoleoyl L-3-Phosphatidylethanolamine (Amersham, Inc., 59 mCi/mmol) were diluted with L-α-phosphatidylethanolamine (Sigma, Co., from […]) [2,000 dpm/nmol], and the dilution was sonicated. […] The amount of free fatty acid released from PLA2 (DPM value) was determined using liquid scintillation counter. […]
Express the result in µM but write the number alone.

For the molecule COc1c(C)c(OC(=O)c2c(C)c(C)c(OC(=O)c3c(C)c(CNCCCCC(NC(=O)OCc4ccccc4)C(N)=O)c(O)c(C)c3O)c(C)c2OC)c(C)c(C)c1C(=O)O (stereo not drawn) , give its measured IC50 value.
1.1

For the molecule COc1c(C)c(OC(=O)c2c(C)c(C)c(OC(=O)c3c(C)c(CO)c(O)c(C)c3O)c(C)c2OC)c(C)c(C)c1C(=O)O , give its measured IC50 value.
0.38

For the molecule COCc1c(C)c(C(=O)Oc2c(C)c(C)c(C(=O)O)c(OC)c2C)c(OC)c(C)c1O , give its measured IC50 value.
3.9
